Entry source: paper doi:10.1101/2024.04.22.590616

Target: T1, Csm2;Psy3 (Saccharomyces cerevisiae?;Saccharomyces …, UniProt P40465;Q12318 1-213;1-242, |)
T1 sequence 1: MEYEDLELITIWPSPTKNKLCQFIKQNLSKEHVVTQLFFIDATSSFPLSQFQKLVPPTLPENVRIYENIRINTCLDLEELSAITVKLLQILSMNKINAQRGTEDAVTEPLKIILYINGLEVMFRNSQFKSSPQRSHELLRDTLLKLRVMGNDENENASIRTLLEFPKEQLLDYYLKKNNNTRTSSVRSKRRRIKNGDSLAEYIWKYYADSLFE
T1 sequence 2: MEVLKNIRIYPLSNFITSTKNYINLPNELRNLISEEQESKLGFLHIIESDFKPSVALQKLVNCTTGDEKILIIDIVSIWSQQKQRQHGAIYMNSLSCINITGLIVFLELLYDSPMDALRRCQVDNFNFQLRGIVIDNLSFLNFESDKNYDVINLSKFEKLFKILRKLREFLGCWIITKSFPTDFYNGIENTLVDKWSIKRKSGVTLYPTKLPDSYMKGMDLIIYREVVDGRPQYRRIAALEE
Run Description: fluorescence polarization
Quantity Kind: Kd (nM)

binder="5'-overhang (20nt) (dsDNA) DNA 1: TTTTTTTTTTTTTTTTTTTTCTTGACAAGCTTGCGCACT DNA 2: AGTGCGCAAGCTTGTCAAG" quantity_kind=Kd unit_abbrev=nM value_measured=760
binder="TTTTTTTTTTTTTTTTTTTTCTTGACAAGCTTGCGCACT (ssDNA) [ss39]" quantity_kind=Kd unit_abbrev=nM value_measured=1980
binder="ds39 (dsDNA) DNA 1: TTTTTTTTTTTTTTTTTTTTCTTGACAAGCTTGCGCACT DNA 2: AGTGCGCAAGCTTGTCAAGAAAAAAAAAAAAAAAAAAAA" quantity_kind=Kd unit_abbrev=nM value_measured=1460
binder="Fork (20nt) (dsDNA) DNA 1: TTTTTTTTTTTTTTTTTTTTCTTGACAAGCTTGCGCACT DNA 2: AGTGCGCAAGCTTGTCAAGGCACTTTTTTTTTTTTTTTT" quantity_kind=Kd unit_abbrev=nM value_measured=780
binder="3'-overhang (20nt) (dsDNA) DNA 1: CTTGACAAGCTTGCGCACT DNA 2: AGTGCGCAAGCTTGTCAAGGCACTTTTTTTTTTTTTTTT" quantity_kind=Kd unit_abbrev=nM value_measured=680
